tested system: MICB*005 on HCC1534 cells (human); also: test concentration or dose not given here
procedure text: cell-based or functional assay
measurement name: % Inhibition (%)
Provide the reading as a plain figure in %.

binder	assay result
13A9v2 (antibody, IgG1, V domains shown, humanized variant of 13A9) VH: EVQLVQSGAEVKKPGASVKVSCKASGYAFTNYLIEWVRQAPGQGLEWIGAINPGSGATNYNEKFKDRATLTADKSTNTAYLELSSLRSEDTAVYFCARFLGNYFDNWGQGTLVTVSS VL: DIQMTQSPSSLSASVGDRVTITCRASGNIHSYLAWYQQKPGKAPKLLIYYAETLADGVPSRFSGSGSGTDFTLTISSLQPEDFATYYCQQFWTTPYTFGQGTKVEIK	60

Next, consider the following binder.
Identify the reported % Inhibition for the following entry. 1D5v29 (antibody, IgG1, V domains shown, humanized variant of 1D5) VH: EIQLVQSGAEVKKPGASVKVSCKASGYAFTSQNIYWVRQAPGQGLEWIGYIEPYNVVPVYNPKFKGRATLTVDKSTSTAYLELSSLRSEDTAVYYCARSGSSNFDYWGQGTLVTVSS VL: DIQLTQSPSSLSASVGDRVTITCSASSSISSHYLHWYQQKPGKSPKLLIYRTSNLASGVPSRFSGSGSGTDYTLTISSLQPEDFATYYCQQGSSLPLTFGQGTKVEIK -8
